# System: soybean
# METHOD_NOTES: Phytotoxicity test for upland field crops (foliar treatment test)
# Format: in vivo
# CONDITION_NOTES: 50 g ai/ha, Soybean (7 days after treatment)
# Foliar treatment phytotoxicity, Soybean values compiled below
Just the number.

Answered cases to consult:
INSERT INTO assay_data (structure_notation, measured) VALUES
  ('Cn1nnc(COCc2nc(C(F)(F)C(F)(F)F)ccc2C(=O)Nc2nnnn2C)n1', 5),
  ('Cn1nnc(COc2nc(C(F)(F)F)ccc2C(=O)Nc2nnnn2C)n1', 5);

Please find the next compound below.
Lab note: compound CON(Cc1nnn(C)n1)Cc1nc(C(F)(F)F)ccc1C(=O)Nc1nnnn1C tested on soybean; recorded Foliar treatment phytotoxicity, Soybean was 5

---

# System: cotton
# METHOD_NOTES: Phytotoxicity test for upland field crops (foliar treatment test)
# Type: in vivo
# Parameters: key: 0 (no harm); 9 (complete withered)
# CONDITION_NOTES: 100 g ai/ha, Cotton (14 days after treatment)
PARAMETER_MEASURED: Foliar treatment phytotoxicity, Cotton
Just the number.

Answered cases to consult:
INSERT INTO results (compound, measured) VALUES
  ('CON(Cc1nnn(C)n1)Cc1nc(C(F)(F)F)ccc1C(=O)Nc1nnnn1C', 9),
  ('CON(Cc1nnn(C)n1)c1nc(C(F)(F)F)ccc1C(=O)Nc1nnnn1C', 8),
  ('Cn1nc(COCc2nc(C(F)(F)F)ccc2C(=O)Nc2nnnn2C)nc1Br', 8),
  ('Cc1nc(COCc2nc(C(F)(F)F)ccc2C(=S)Nc2nnnn2C)nn1C', 2),
  ('Cn1nnnc1NC(=O)c1ccc(C(F)(F)F)nc1OCc1nnnn1C(F)F', 9);

Documented Foliar treatment phytotoxicity, Cotton of Cn1nnnc1CSc1nc(C(F)(F)F)ccc1C(=S)Nc1nnnn1C : 9

Documented Foliar treatment phytotoxicity, Cotton of Cn1cnc(COCc2nc(C(F)F)ccc2C(=O)Nc2nnnn2C)n1 : 9

Documented Foliar treatment phytotoxicity, Cotton of Cn1nnnc1NC(=O)c1ccc(C(F)(F)F)nc1Sc1nnnn1C : 4

Documented Foliar treatment phytotoxicity, Cotton of Cn1nnc(COCc2nc(C(F)(F)C(F)(F)F)ccc2C(=O)Nc2nnnn2C)n1 : 9

Documented Foliar treatment phytotoxicity, Cotton of COC(=O)OC(C)N(C(=O)c1ccc(C(F)(F)F)nc1COCc1ncn(C)n1)c1nnnn1C (centres unmarked) : 8

Documented Foliar treatment phytotoxicity, Cotton of Cn1nnnc1COc1nc(C(F)(F)F)ccc1C(=O)Nc1nnnn1C : 7

Documented Foliar treatment phytotoxicity, Cotton of Cn1nnc(COCc2nc(C(F)(F)F)ccc2C(=S)Nc2nnnn2C)n1 : 9

Documented Foliar treatment phytotoxicity, Cotton of CN(Cc1nnn(C)n1)c1nc(C(F)(F)F)ccc1C(=O)Nc1nnnn1C : 4

Documented Foliar treatment phytotoxicity, Cotton of Cn1nnc(COCc2nc(C(F)(F)Cl)ccc2C(=O)Nc2nnnn2C)n1 : 9

Documented Foliar treatment phytotoxicity, Cotton of Cn1ncnc1COc1nc(C(F)(F)F)ccc1C(=O)Nc1nnnn1C : 9

Documented Foliar treatment phytotoxicity, Cotton of Cn1nnc(COc2nc(C(F)(F)F)ccc2C(=O)Nc2nnnn2C)n1 : 9

Documented Foliar treatment phytotoxicity, Cotton of Cn1nc(COCc2nc(C(F)(F)F)ccc2C(=O)Nc2nnnn2C)nc1Cl : 7

---

# System: soybean
# METHOD_NOTES: Phytotoxicity test for upland field crops (foliar treatment test)
# Format: in vivo
# CONDITION_NOTES: 50 g ai/ha, Soybean (7 days after treatment)
# Foliar treatment phytotoxicity, Soybean values compiled below
Just the number.

Answered cases to consult:
INSERT INTO results (structure_notation, measured) VALUES
  ('Cn1nnc(COCc2nc(C(F)(F)F)ccc2C(=O)Nc2nnnn2C)n1', 5),
  ('Cn1nnc(COCc2nc(C(F)(F)F)ccc2C(=S)Nc2nnnn2C)n1', 5);

Documented Foliar treatment phytotoxicity, Soybean of Cn1nnc(COCc2nc(C(F)(F)Cl)ccc2C(=O)Nc2nnnn2C)n1 : 5

---

# Foliar treatment phytotoxicity, Soybean values compiled below
# System: soybean
# METHOD_NOTES: Phytotoxicity test for upland field crops (foliar treatment test)
# Assay type: in vivo
# CONDITION_NOTES: 50 g ai/ha, Soybean (14 days after treatment)
Just the number.

Answered cases to consult:
INSERT INTO results (molecule, measured) VALUES
  ('Cn1nc(COCc2nc(C(F)(F)F)ccc2C(=O)Nc2nnnn2C)nc1Cl', 6),
  ('Cn1cnc(COCc2nc(C(F)F)ccc2C(=O)Nc2nnnn2C)n1', 6),
  ('CON(Cc1nnn(C)n1)Cc1nc(C(F)(F)F)ccc1C(=O)Nc1nnnn1C', 6),
  ('Cn1nnc(COCc2nc(C(F)(F)C(F)(F)F)ccc2C(=O)Nc2nnnn2C)n1', 6);

Lab note: molecule Cn1nc(COCc2nc(C(F)(F)F)ccc2C(=O)Nc2nnnn2C)nc1Br tested on soybean; recorded Foliar treatment phytotoxicity, Soybean was 6

Lab note: molecule COC(=O)OC(C)N(C(=O)c1ccc(C(F)(F)F)nc1COCc1ncn(C)n1)c1nnnn1C (stereo not drawn) tested on soybean; recorded Foliar treatment phytotoxicity, Soybean was 6

---

# Foliar treatment phytotoxicity, Wheat values compiled below
# System: wheat
# METHOD_NOTES: Phytotoxicity test for upland field crops (foliar treatment test)
# Format: in vivo
# Design: key: 0 (no harm); 9 (complete withered)
# CONDITION_NOTES: 100 g ai/ha, Wheat (7 days after treatment)
Just the number.

Answered cases to consult:
INSERT INTO measurements (compound, measured) VALUES
  ('C=CCn1nnnc1NC(=O)c1ccc(C(F)(F)F)nc1COCc1nc(C(F)(F)F)n(C)n1', 0),
  ('Cn1nnc(CS(=O)(=O)Cc2nc(C(F)(F)F)ccc2C(=O)Nc2nnnn2C)n1', 4),
  ('Cn1nnc(COc2nc(C(F)(F)F)ccc2C(=O)Nc2nnnn2C)n1', 0),
  ('Cn1nc(COCc2nc(C(F)(F)F)ccc2C(=O)Nc2nnnn2C)nc1Br', 0),
  ('Cn1nnnc1NC(=O)c1ccc(C(F)(F)F)nc1Sc1nnnn1C', 1),
  ('CON(Cc1nnn(C)n1)Cc1nc(C(F)(F)F)ccc1C(=O)Nc1nnnn1C', 0),
  ('Cn1nnnc1CSc1nc(C(F)(F)F)ccc1C(=S)Nc1nnnn1C', 0),
  ('CCOC(=O)OC(C)n1nnn(C)c1=NC(=O)c1ccc(C(F)(F)F)nc1CSCc1nnn(C)n1 (stereo not shown)', 0),
  ('CCCn1nnnc1NC(=O)c1ccc(C(F)(F)F)nc1COCc1nnn(CC)n1', 0),
  ('Cn1nnc(COCc2nc(C(F)F)ccc2C(=O)Nc2nnnn2C)n1', 0);

Documented Foliar treatment phytotoxicity, Wheat of Cn1nc(COCc2nc(C(F)(F)F)ccc2C(=O)Nc2nnnn2C)nc1I : 0

Documented Foliar treatment phytotoxicity, Wheat of C=CCn1nnnc1NC(=O)c1ccc(C(F)(F)F)nc1COCc1nc(C(F)F)n(C)n1 : 0

Documented Foliar treatment phytotoxicity, Wheat of CON(Cc1nnn(C)n1)c1nc(C(F)(F)F)ccc1C(=O)Nc1nnnn1C : 3

---

# Tested on: wheat
# METHOD_NOTES: Phytotoxicity test for field crops (soil treatment test)
# Type: in vivo
# Parameters: key: 0 (no harm); 9 (complete withered)
# CONDITION_NOTES: 50 g ai/ha; Wheat (20 days after treatment)
# Soil treatment phytotoxicity, Wheat values compiled below

INSERT INTO results (structure_notation, assayed_system, parameter_measured, measured) VALUES
  ('COc1nc(COCc2nc(C(F)(F)F)ccc2C(=O)Nc2nnnn2C)nn1C', 'wheat', 'Soil treatment phytotoxicity, Wheat', 0),
  ('Cc1nc(COCc2nc(C(F)(F)F)ccc2C(=O)Nc2nnnn2C)nn1C', 'wheat', 'Soil treatment phytotoxicity, Wheat', 2);

Lab note: compound Cn1nnnc1COCc1nc(C(F)(F)F)ccc1C(=O)Nc1nnnn1C tested on wheat; recorded Soil treatment phytotoxicity, Wheat was 0

---

# Foliar treatment phytotoxicity, Rice values compiled below
# Tested on: rice
# METHOD_NOTES: Phytotoxicity test for upland field crops (foliar treatment test)
# Type: in vivo
# CONDITION_NOTES: 50 g ai/ha, Rice (14 days after treatment)
Just the number.

INSERT INTO measurements (compound, measured) VALUES
  ('Cn1nnnc1COCc1nc(C(F)(F)F)ccc1C(=O)Nc1nnnn1C', 6),
  ('COC(=O)OC(C)N(C(=O)c1ccc(C(F)(F)F)nc1COCc1ncn(C)n1)c1nnnn1C (stereo not drawn)', 6);

Please find the next compound below.
Lab note: compound Cn1nc(COCc2nc(C(F)(F)F)ccc2C(=O)Nc2nnnn2C)nc1Cl tested on rice; recorded Foliar treatment phytotoxicity, Rice was 6

---

# System: crabgrass
# METHOD_NOTES: Herbicidal activity test against upland field weeds (soil treatment test)
# Format: in vivo
# Design: key: 0 (no control); 100 (complete control)
# CONDITION_NOTES: 50 g ai/ha, scale 0 (no control) to 100 (complete control)
PARAMETER_MEASURED: Soil treatment herbicidal activity, Crabgrass

Answered cases to consult:
INSERT INTO assay_data (compound, assayed_system, measured) VALUES
  ('CC(=O)N(C(=O)c1ccc(C(F)(F)F)nc1COCc1nnn(C)n1)c1nnnn1C', 'crabgrass', 100),
  ('Cn1nnc(CSCc2nc(C(F)(F)F)ccc2C(=O)N(C(=O)c2ccccc2)c2nnnn2C)n1', 'crabgrass', 0);

Documented Soil treatment herbicidal activity, Crabgrass of Cn1nnc(COCc2nc(C(F)(F)C(F)(F)F)ccc2C(=O)Nc2nnnn2C)n1 : 100

Documented Soil treatment herbicidal activity, Crabgrass of COC(=O)OC(C)N(C(=O)c1ccc(C(F)(F)F)nc1COCc1nnn(C)n1)c1nnnn1C (stereo not drawn) : 0

Documented Soil treatment herbicidal activity, Crabgrass of Cn1nnc(C[S+]([O-])Cc2nc(C(F)F)ccc2C(=O)Nc2nnnn2C)n1 (stereo not drawn) : 0
